Cited source: patent US11512053B2

Target: full-length human PRMT1 isoform 1 (GST-tagged) (Homo sapiens)
Sequence (Q99873 with tags, fused parts or gaps): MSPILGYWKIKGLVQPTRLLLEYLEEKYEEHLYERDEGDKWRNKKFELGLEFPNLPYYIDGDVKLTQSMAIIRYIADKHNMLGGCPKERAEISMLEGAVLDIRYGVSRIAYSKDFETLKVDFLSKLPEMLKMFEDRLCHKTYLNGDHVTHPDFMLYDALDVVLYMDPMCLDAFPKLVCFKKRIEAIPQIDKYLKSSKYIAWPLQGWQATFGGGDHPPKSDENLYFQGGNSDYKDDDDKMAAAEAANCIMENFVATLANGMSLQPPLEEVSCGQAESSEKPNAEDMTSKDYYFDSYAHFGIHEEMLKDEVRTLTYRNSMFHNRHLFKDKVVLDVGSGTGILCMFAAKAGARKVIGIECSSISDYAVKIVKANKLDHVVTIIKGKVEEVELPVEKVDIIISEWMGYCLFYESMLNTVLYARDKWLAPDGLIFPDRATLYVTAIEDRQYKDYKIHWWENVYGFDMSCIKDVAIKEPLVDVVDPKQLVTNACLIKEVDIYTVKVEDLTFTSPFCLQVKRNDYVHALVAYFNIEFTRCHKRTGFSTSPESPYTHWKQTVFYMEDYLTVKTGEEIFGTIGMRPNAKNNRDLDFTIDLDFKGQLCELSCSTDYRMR
Assay: PRMT1 Biochemical Assay (3H-SAM Flashplate, peptide substrate)
Settings: single experiment or average of multiple experiments
pIC50: −log10 of the molar value. Counter-ions that a name gives are not always drawn.
measured.attribute: pIC50

Previously resolved entries follow.
molecule	pIC50
CN(CCN)Cc1c[nH]nc1C1=CCOCC1 [Compound 10]	6.41
CNCCN(C)Cc1c[nH]nc1C1CCC(C)(C)[C@@H](C(=O)OC)C1 (stereo partly shown) [Compound 255]	7.99
CNCCN(C)Cc1c[nH]nc1C1CCC(Oc2ccccc2)CC1 (stereo not shown) [Compound 67]	8.11
CNCCN(C)Cc1c[nH]nc1C1CCC(C)(C)C(C(=O)NCc2ccccc2)C1 (stereo not shown) [Compound 92]	7.68
CNCCN(C)Cc1c[nH]nc1C1CCC2(CC1)CCC(F)(F)CC2 [Compound 130]	8.47
CNCCN(C)Cc1c[nH]nc1[C@H]1CC[C@@H](O)CC1 [Compound 217, trifluoroacetate]	7.52

(A) CNCCN(C)Cc1c[nH]nc1C1CCC(F)(F)CC1 [Compound 216]
(B) CNCCN(C)Cc1c[nH]nc1C1CCC(C)(C)[C@H](C(=O)NCC(C)C)C1 (stereo partly shown) [Compound 262]
Between A and B , which one shows the smaller pIC50 number? // return label of chosen record
B

(P) CN(CCN)Cc1c[nH]nc1/C=C/c1cc(F)cc(F)c1 [Compound 15]
(Q) CNCCN(C)Cc1c[nH]nc1C1CCC(=O)N(Cc2ccccc2)C1 (stereo not shown) [Compound 115]
(R) CNCCN(C)Cc1n[nH]cc1[C@H]1CC[C@H](C(=O)NCCC(C)C)CC1 [Compound 203]
(S) CNCCN(C)Cc1c[nH]nc1C1CCC(OCCOc2ccccc2)CC1 (stereo not shown) [Compound 136]
(T) CNCCN(C)Cc1c[nH]nc1C1CCC(C)(C)C(COCC(C)C)C1 (stereo not shown) [Compound 95]
Order the 5 molecules from highest to lowest pIC50. Lab note: final answer is the ordered label list.
S, T, R, P, Q

(1) CNCCN(C)Cc1c[nH]nc1[C@H]1CC[C@]2(CC1)CC(=O)N(CC(C)C)C2 [Compound 155]
(2) CCOC1CC(OCC)CC2(CCC(c3n[nH]cc3CN(C)CCNC)CC2)C1 (stereo not shown) [Compound 159]
(3) CN(CCN)Cc1c[nH]nc1CCc1ccccc1 [Compound 9]
(4) CN(CCN)Cc1c[nH]nc1C1=CCCC1 [Compound 25]
Order the 4 molecules from highest to lowest pIC50. Lab note: final answer is the ordered label list.
3, 2, 1, 4
